The origin of these recorded values is PubChem BioAssay AID624167.

- Test system: Rat fibroblasts (CREF)
- ASSAY: Peg3 promoter luciferase inhibitors, potency, dose response, cell-based, HeLa, CREF/GAPDH counter-screen panel (AID 624167)
- RECORDED_CONDITIONS: CREF/GAPDH counter-screens, mean of runs
Active and inactive are the calls of the source.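 The calls were made as follows: active = mean IC50 for reducing PEG3 promoter reporter signal at or below a set limit, with IC50 above the limit in both counter screens; inactive = the rest, including counter screen hits.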
In this exercise, the only acceptable responses are active, inactive

Record request — test call for CC(C)CC1C(=O)N(Cc2cn(Cc3ccco3)nn2)CCS(=O)(=O)N1Cc1ccc(-c2ccc(F)cc2)cc1 (configuration not stated)
inactive

Record request — test call for CCCC(=O)NC(c1ccc(Cl)cc1)c1ccc2cccnc2c1O (configuration not stated)
inactive

Record request — test call for CN(C)c1ccc(/C=C/c2nc3ccccc3s2)cc1
active

Record request — test call for O=C(N/N=C/c1c(O)ccc2ccccc12)c1ccc(CO)nc1
active

Record request — test call for COc1cccc(/C=N/NC(=O)c2c(C)nc3ccc(Cl)cn23)c1O
inactive

Next:
Record request — test call for COc1cc(CNCCCN2CCOCC2)cc(Br)c1OCc1ccc(Cl)cc1
active

Record request — test call for CN(C(=O)COC(=O)/C=C/c1cccc([N+](=O)[O-])c1)C1CCS(=O)(=O)C1 (configuration not stated)
inactive

Record request — test call for C=C1CC(COc2ccc3c(C)c(Cl)c(=O)oc3c2)(c2ccccc2)OC1=O (configuration not stated)
active

Record request — test call for O=C(OCC(F)(F)F)c1cccc(COc2ccc3ccccc3c2)c1
active

Record request — test call for OCCCNc1nccc(-c2cc(Nc3cccc(Cl)c3)ncn2)n1
inactive

Record request — test call for O=C(O)c1ccc(CN2C(=O)c3cccc4c([N+](=O)[O-])ccc(c34)C2=O)cc1
active

Record request — test call for COc1ccc(S(=O)(=O)/N=C2\C=C(Nc3ccc(O)cc3)C(=O)c3ccccc32)cc1
active

====

- SYSTEM: UniProt Q6IN02
- ASSAY: Peg3 promoter luciferase inhibitors, potency, dose response, cell-based, HeLa, CREF/GAPDH counter-screen panel (AID 624167)
- RECORDED_CONDITIONS: HeLa PEG-Prom luciferase reporter, overnight, CREF/GAPDH counter-screens, mean of runs
Active and inactive are the calls of the source.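 The calls were made as follows: active = mean IC50 for reducing PEG3 promoter reporter signal at or below a set limit, with IC50 above the limit in both counter screens; inactive = the rest, including counter screen hits.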
In this exercise, the only acceptable responses are active, inactive

Completed entries (count: 4):
Record request — test call for Cc1cc2sc3ccc(C#CC4(O)CCCCC4)cc3c(=O)c2cc1C
active

Record request — test call for COc1ccc(-n2nnnc2C(C2CC2)N2CCC(n3c(=O)[nH]c4ccccc43)CC2)cc1 (configuration not stated)
inactive

Record request — test call for CCOC(=O)c1c(NC(=O)COc2ccccc2F)sc2c1CC(C)(C)NC2(C)C
inactive

Record request — test call for CC1CCCC(C)N1C(=C(Cl)Cl)C(=C1SCCS1)[N+](=O)[O-] (configuration not stated)
active

Next:
Record request — test call for COc1ccc(-c2cc(C(=O)N3CCN(c4ncccn4)CC3)c3ccccc3n2)c(OC)c1
inactive

Record request — test call for CC1(C)CC(NC(=O)c2sc3cc(Cl)ccc3c2Cl)CC(C)(C)N1
active

Record request — test call for Cc1ccc2sc(N(CCCN(C)C)C(=O)c3ccc(S(=O)(=O)N(C)C4CCCCC4)cc3)nc2c1C
active

Record request — test call for CC(C)CC(=NNC(=O)c1ccncc1)c1cc(Cl)ccc1O
active

Record request — test call for NC(N)=N/N=C/c1cccc(Cl)c1Cl
active

Record request — test call for O=C(O)c1ccc(CN2C(=O)c3cccc4c([N+](=O)[O-])ccc(c34)C2=O)cc1
active

Record request — test call for O=C1NC(=S)NC(=O)C1=Cc1cccn1-c1ccc(O)cc1
active

====

- Tested on: PEG-3
- ASSAY: Peg3 promoter luciferase inhibitors, potency, dose response, cell-based, HeLa, CREF/GAPDH counter-screen panel (AID 624167)
- RECORDED_CONDITIONS: HeLa PEG-Prom luciferase reporter, overnight, CREF/GAPDH counter-screens, run 1, dose range 1, individual replicate IC50 per panel
READOUT_NAME: pIC50
Units for pIC50: none; it is -log10 of a concentration expressed in mol/L.

Solved cases (5 shown):
State, in one line, measured pIC50 of O=C(NC(=O)c1ccccc1)Nc1ccccn1
5.90

State, in one line, measured pIC50 of COc1cccc(NC(=O)c2nc(S(C)(=O)=O)ncc2Cl)c1
5.05

State, in one line, measured pIC50 of Cc1ccc2nc(C)cc(Nc3ccc([N+](=O)[O-])cc3)c2c1
4.97

State, in one line, measured pIC50 of CCOc1cc(CNCCO)cc(Br)c1OCc1ccccc1Cl
4.39

State, in one line, measured pIC50 of CC(C)n1nc(C(=O)Oc2cc(Cl)ccc2Cl)c2ccccc2c1=O
4.18

Next:
State, in one line, measured pIC50 of Cc1ccc(NS(=O)(=O)c2cc3c4c(cccc4c2)C(=O)NC3=O)cc1C
5.22

State, in one line, measured pIC50 of CN(C)CCNC(=O)/C(=C/c1ccc(-c2ccc(Cl)cc2)o1)NC(=O)c1ccccc1
4.74

State, in one line, measured pIC50 of CC(=O)Nc1cccc(-c2ccnc3c2CC(C)(C(=O)Nc2cccc(OC(F)(F)F)c2)O3)c1 (centres undefined)
5.05

State, in one line, measured pIC50 of O=C(C=Cc1ccccn1)c1ccccc1
4.68

====

- Tested on: GAPDH
- ASSAY: Peg3 promoter luciferase inhibitors, potency, dose response, cell-based, HeLa, CREF/GAPDH counter-screen panel (AID 624167)
- RECORDED_CONDITIONS: CREF/GAPDH counter-screens, run 1, dose range 1, individual replicate IC50 per panel
Reported IC50 is given for each of the following compounds.
Report only the number, with the unit µM understood.

State, in one line, measured IC50 of C=C1CC2(OC1=O)c1ccccc1CCc1ccccc12
15.2

State, in one line, measured IC50 of Clc1ccccc1/C=C/c1nc(-c2ccccn2)no1
3.51

State, in one line, measured IC50 of O=c1c2ccccc2sc2nc(CCl)nn12
11.9

State, in one line, measured IC50 of O=C(N/N=C/c1sc(N2CCOCC2)nc1-c1ccccc1)c1cccc(S(=O)(=O)N2CCCC2)c1
18.9

State, in one line, measured IC50 of COc1cc(CNCCCN2CCOCC2)cc(Br)c1OCc1ccc(Cl)cc1
15.3

State, in one line, measured IC50 of Cc1ccc(/C=C2\SC(=S)N(CCCC(=O)NNC(=O)c3ccccc3O)C2=O)cc1
2.65

State, in one line, measured IC50 of CC(C)(C)c1ccc(Oc2ccc(N)cc2)cc1
0.457

State, in one line, measured IC50 of O=C1C=CC(=O)N1c1ccc(-c2nc3ccccc3o2)cc1
41.6

State, in one line, measured IC50 of CCC(c1ccc(O)c(O)c1)C(CC)c1ccc(O)c(O)c1 (stereo not given)
35.6

State, in one line, measured IC50 of O=C(N/N=C\c1c(O)ccc2ccccc12)c1cncc(Br)c1
40.3

Next:
State, in one line, measured IC50 of CN(C)S(=O)(=O)c1ccc(-c2csc(N/N=C/c3ccc(O)cc3)n2)cc1
11.7

State, in one line, measured IC50 of O=[N+]([O-])c1ccc(S(=O)(=O)c2ccccc2)nc1
33.8

State, in one line, measured IC50 of COc1ccc(N(C(=O)CCl)C(C(=O)NC2CCCCC2)c2cccnc2)cc1 (stereo not given)
40.4

State, in one line, measured IC50 of COc1cc2nc(CN3CC=C(c4ccccc4)CC3)[nH]c(=O)c2cc1OC
60.9

State, in one line, measured IC50 of O=C(N/N=C/c1ccc(Cl)c([N+](=O)[O-])c1)c1cc(-c2ccc3c4c(cccc24)CC3)n[nH]1
22.8

State, in one line, measured IC50 of CCc1ccc(/C=C2\SC(=S)N(CCCC(=O)NC3=NCCS3)C2=O)cc1
4.61

State, in one line, measured IC50 of CC1=CC2/C=C(\C)CCC(O)C(O)/C=C/C(=O)C23C(=O)NC(CC(C)C)C3C1C (stereo not given)
9.17

====

- SYSTEM: PEG-3 (UniProt Q6IN02)
- Sequence (Q6IN02 whole entry, looked up): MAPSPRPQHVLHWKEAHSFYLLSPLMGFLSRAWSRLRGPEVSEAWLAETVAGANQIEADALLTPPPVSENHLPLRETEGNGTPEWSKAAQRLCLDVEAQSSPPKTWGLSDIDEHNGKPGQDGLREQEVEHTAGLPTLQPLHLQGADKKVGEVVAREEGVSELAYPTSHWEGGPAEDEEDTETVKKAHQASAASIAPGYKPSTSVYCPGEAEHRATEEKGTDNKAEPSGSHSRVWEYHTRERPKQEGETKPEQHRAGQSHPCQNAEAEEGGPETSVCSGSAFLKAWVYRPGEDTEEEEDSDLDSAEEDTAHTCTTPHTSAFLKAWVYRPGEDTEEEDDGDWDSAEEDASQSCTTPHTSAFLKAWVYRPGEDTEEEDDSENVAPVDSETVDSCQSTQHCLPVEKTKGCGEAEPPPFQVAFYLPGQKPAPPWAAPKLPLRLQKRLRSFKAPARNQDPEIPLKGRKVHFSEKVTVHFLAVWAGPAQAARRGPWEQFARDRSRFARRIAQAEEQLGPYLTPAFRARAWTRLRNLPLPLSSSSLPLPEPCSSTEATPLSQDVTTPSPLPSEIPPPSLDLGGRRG
- ASSAY: Peg3 promoter luciferase inhibitors, potency, dose response, cell-based, HeLa, CREF/GAPDH counter-screen panel (AID 624167)
- RECORDED_CONDITIONS: HeLa PEG-Prom luciferase reporter, overnight, CREF/GAPDH counter-screens, mean of runs
Active and inactive are the calls of the source.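 Rule for the calls: active = mean IC50 for reducing PEG3 promoter reporter signal at or below a set limit, with IC50 above the limit in both counter screens; inactive = the rest, including counter screen hits.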
In this exercise, the only acceptable responses are 1 (yes) = active, 0 (no) = inactive

Completed entries (count: 6):
Record request — test call for Cc1ccc(-n2cc(CNCCCn3ccnc3C)c(-c3ccc(F)cc3)n2)cc1
1 (yes)

Record request — test call for NC(c1csc(Nc2nccc(C(F)(F)F)n2)n1)C1CCCCC1 (configuration not stated)
1 (yes)

Record request — test call for CC1(C(=O)NCc2cccc3ccccc23)CCN1C(=O)Cc1ccc(-c2ccccc2)cc1 (configuration not stated)
0 (no)

Record request — test call for Cc1ccc(CC2(OCCN(C)C)CCC(C(C)(C)C)CC2)cc1 (configuration not stated)
1 (yes)

Record request — test call for C(=N\Nc1ccc2ccccc2n1)/c1ccc2c(c1)OCCO2
1 (yes)

Record request — test call for COC(=O)c1ccccc1-c1ccc(/C=N/Nc2nc(N3CCCC3)nc(N3CCCC3)n2)o1
0 (no)

Next:
Record request — test call for CCOc1ccc2nc(N(CCCN(C)C)C(=O)c3ccc(C(=O)c4ccccc4)cc3)sc2c1
1 (yes)

Record request — test call for Cc1cc(C(=O)CN2C(=O)c3ccccc3S2(=O)=O)c(C)n1C(C)C
1 (yes)

Record request — test call for Cc1ccc2[nH]c(=O)c(C3C(C#N)=C(N)Oc4c3ccc3cccnc43)cc2c1 (configuration not stated)
0 (no)

Record request — test call for COc1ccc(-n2c(/C=C/c3ccc(O)c(OC)c3)nc3ccccc3c2=O)cc1
1 (yes)

Record request — test call for CCN1CCN(c2nc(Nc3cc(OC)ccc3OC)nc(Nc3cc(OC)ccc3OC)n2)CC1
1 (yes)

Record request — test call for CCn1cc(CN2CCC(C(=O)Nc3cccc(-c4cccc(Cl)c4)c3)CC2)cn1
1 (yes)

Record request — test call for COc1cc(-c2cc(C(=O)N(C)Cc3ccccc3)c3ccccc3n2)cc(OC)c1OC
0 (no)

Record request — test call for CCC(=O)NC(c1cccs1)c1cc([N+](=O)[O-])c2cccnc2c1O (configuration not stated)
1 (yes)

Record request — test call for COC(=O)CSC1=NS(=O)(=O)c2ccccc21
0 (no)

Record request — test call for O=C(Cn1ncc(Cl)c(Cl)c1=O)N1CCc2ccccc21
1 (yes)

Record request — test call for O=[N+]([O-])c1ccc(-c2ccc(/C=N/Nc3nc(NCc4ccccc4)nc(N4CCOCC4)n3)o2)cc1
1 (yes)

Record request — test call for O=S(=O)(Nc1cccc2cccnc12)c1ccccc1
0 (no)
